This section presents compounds with their documented z-score values.
Test: RPMI8226 myeloma cell viability, profiling panel, resazurin fluorescence, basal, 24 h, PK04 Diversity Set (AID 1180);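 further: RPMI8826 multiple myeloma cell line at 5000 cells per well; test concentration not given here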
Conditions: higher = more signal
Enter the number alone.

Example entries begin here.
compound: CC(C)(C)N1CC=CC23O[C@@H]4C=CCOC(=O)[C@@H]4[C@H]2C(=O)N(CCCCCCO)[C@@H]3C1=O (some centres not stated)
z-score: 0.29
//
compound: CN(C)CCCCNC(=O)[C@@H]1C[C@@H]2C(=O)N[C@@H](Cc3ccccc3)C(=O)N2[C@@H]1c1cccc(OCCO)c1
z-score: 0.588
//
compound: CC(CO)N1C(=O)[C@@H]2[C@H]3C(=O)OCC=C[C@H]3OC23C=CCN(CCN2CCOCC2)C(=O)[C@@H]13 (some centres not stated)
z-score: -0.266
//
compound: CCOC(=O)C[C@H]1[C@H](OC(=O)c2cc3ccccc3oc2=O)[C@@H](NC(=O)c2ccc(-c3ccccc3)cc2)c2cc(OCCCO)ccc2N1C(=O)c1ccccc1
z-score: -0.24
//
compound: O=C(NCC(F)(F)F)[C@@H]1c2ccccc2C(=O)N(Cc2cc(F)cc(C(F)(F)F)c2)[C@H]1c1ccc(CO)cc1
z-score: 0.867
//
compound: COc1ccc(NC(=O)O[C@H]2[C@H](OC(=O)Nc3ccccc3)[C@@H](OC(=O)Nc3ccccc3)[C@@H](OC)O[C@@H]2CO)cc1
z-score: -1.61

Moving on to another compound below.
[Q] What value of z-score has been reported for the following compound? C=CCC(OC(C)=O)[C@@H]1[C@@H](N(Cc2ccc(-c3cccc(C(F)(F)F)c3)o2)C(=O)c2ccc(C)cc2)c2cc(OCCCO)ccc2N1C(=O)c1ccc2ccccc2c1 (some centres not stated)
[A] 1.37
